So I've got a bunch of compounds here, and I need their IC50 values.
Tested on: Candida albicans TIMM 1623
Assay: Antifungal action, microbroth dilution growth inhibition
Format: cell-based
Conditions: Candida albicans, TIMM1623, 36 h, read-out: IC50 (50% growth inhibitory concentration)
Protocol: 50% growth inhibitory concentration (IC50) was measured according to the microbroth dilution method, using, as a reference, the antifungal agent sensitivity test method proposed by the subcommittee for the antifungal agent sensitivity test, the Japanese Society for Medical Mycology (Japanese Journal of Medical Mycology, vol. 36, No. 1, pp. 62 to 64, 1995). Synthetic amino acid medium, fungal (SAAMF, manufactured by Nippon Bio-Supp. Center) was used as a medium for measurement of sensitivity. […]
Counter-ions that a name gives are not always drawn.
The reply should be a number in µg/mL, with the unit left off.

The reported IC50 of the compound N=C(N)c1ccc(OCCCN2CCN(CCCOc3ccc(C(=N)N)cc3F)CC2)c(F)c1 [Example 43, Hydrochloride] was 0.0313

The reported IC50 of the compound CNCCCOc1ccc(C(=N)N)cc1 [Example 2, Hydrochloride] was 2

The reported IC50 of the compound N=C(N)c1ccc(OCCCCN)cc1 [Example 5, hydrochloride] was 0.25

The reported IC50 of the compound N=C(N)c1ccc(OCCCN2CCCN(CCCOc3ccc(C(=N)N)cc3)CC2)cc1 [Example 55, Hydrochloride] was 0.0156

The reported IC50 of the compound N=C(N)c1ccc(OCCCNCCNCCCOc2ccc(C(=N)N)cc2)cc1 [Example 24, hydrochloride] was 0.0078

The reported IC50 of the compound N=C(N)c1ccc(OCCCNCCNCCCOc2cccc(C(=N)N)c2)cc1 [Example 74, Hydrochloride] was 0.125

The reported IC50 of the compound N=C(N)c1ccc(OCCCN2CCN(CCCOc3ccc(C(=N)N)c(F)c3)CC2)cc1F [Example 42, Hydrochloride] was 0.0156

The reported IC50 of the compound N=C(N)c1ccc(OCCCNCCNCCOc2ccc(C(=N)N)cc2)cc1 [Example 27, Hydrochloride] was 0.0313

The reported IC50 of the compound N=C(N)c1ccc(OCCCN)cc1 [Example 9-2, Hydrochloride] was 0.5

The reported IC50 of the compound N=C(N)c1ccc(OCCCCNCCNCCCCOc2ccc(C(=N)N)cc2)cc1 [Example 26, Hydrochloride] was 0.0625

The reported IC50 of the compound N=C(N)c1ccc(OCCCNCCCCCC(=O)O)cc1 [Example 3-2, Hydrochloride] was 0.5

The reported IC50 of the compound N=C(N)c1ccc(OCCCNC2CCN(CCCOc3ccc(C(=N)N)cc3)C2)cc1 (stereo not shown) [Example 57, Hydrochloride] was 0.0313

The reported IC50 of the compound N=C(N)c1ccc(OCCCCCN)cc1 [Example 7, Hydrochloride] was 0.5

The reported IC50 of the compound N=C(N)c1ccc(OCCCN2CCC(CCOc3ccc(C(=N)N)cc3)CC2)cc1 [Example 56, Hydrochloride] was 0.0039

The reported IC50 of the compound N=C(N)c1ccc(OCCCNCCCOc2ccc(C(=N)N)cc2)cc1 [Example 32, Hydrochloride] was 0.0313

The reported IC50 of the compound N=C(N)c1ccc(OCCCNC2CCN(CCCOc3ccc(C(=N)N)cc3)CC2)cc1 [Example 58, Hydrochloride] was 0.0313

The reported IC50 of the compound N=C(N)c1ccc(OCCCN2CCN(CCCOc3ccc(C(=N)N)cc3)CC2)cc1 [Example 40-2, hydrochloride] was 0.0039

The reported IC50 of the compound N=C(N)c1ccc(OCCNCCNCCOc2ccc(C(=N)N)cc2)cc1 [Example 25, Hydrochloride] was 0.0156

The reported IC50 of the compound N=C(N)c1ccc(OCCCNCCN)cc1 [Example 10, hydrochloride] was 1

The reported measurements were obtained from patent US7291617B2.
